target: recombinant human BACE-1 (Homo sapiens, UniProt P56817); test: BACE-1 FRET peptide cleavage assay; format: biochemical; conditions: FRET peptide with Swedish variant, pH 4.5, 2 h, 25 °C, triplicate
Sequence (P56817 46-501): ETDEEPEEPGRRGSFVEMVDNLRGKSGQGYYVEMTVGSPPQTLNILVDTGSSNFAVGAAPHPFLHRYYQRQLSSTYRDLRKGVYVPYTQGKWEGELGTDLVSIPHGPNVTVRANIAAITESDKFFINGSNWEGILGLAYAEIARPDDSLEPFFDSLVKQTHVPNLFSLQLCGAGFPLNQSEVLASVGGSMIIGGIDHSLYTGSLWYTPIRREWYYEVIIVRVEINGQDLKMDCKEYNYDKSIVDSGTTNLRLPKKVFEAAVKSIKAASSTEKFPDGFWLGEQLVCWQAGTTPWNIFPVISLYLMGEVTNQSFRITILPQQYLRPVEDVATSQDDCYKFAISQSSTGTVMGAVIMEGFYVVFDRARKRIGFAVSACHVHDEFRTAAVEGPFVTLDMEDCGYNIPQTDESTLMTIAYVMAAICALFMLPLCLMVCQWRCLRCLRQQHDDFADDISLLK
Mark YES only for IC50, inhibition of cleavage of FRET peptide by BACE-1 values smaller than 100 µg/ml; exact matches and larger values are NO.

>  <compound>
CC(=O)N[C@H]1[C@@H](O[C@H]2[C@H](O)[C@@H](O)[C@H](O[C@H]3[C@H](O)[C@@H](NC(C)=O)[C@@H](OCCCCCN)O[C@@H]3COS(=O)(=O)[O-])O[C@@H]2C(=O)[O-])O[C@H](COS(=O)(=O)[O-])[C@@H](O[C@@H]2O[C@@H](C(=O)[O-])[C@@H](O)[C@H](O)[C@H]2O)[C@@H]1O.[Na+].[Na+].[Na+].[Na+] [Compound 80]

>  <system>
recombinant human BACE-1 (Homo sapiens, UniProt P56817)

>  <cat>
NO

$$$$
>  <compound>
NCCCCCOC1OC(COS(=O)(=O)O)C(OC2OC(C(=O)O)C(OC3OC(COS(=O)(=O)O)C(OC4OC(C(=O)O)C(OC5OC(COS(=O)(=O)O)C(OC6OC(C(=O)O)C(O)C(O)C6O)C(O)C5NS(=O)(=O)O)C(O)C4O)C(O)C3NS(=O)(=O)O)C(O)C2O)C(O)C1NS(=O)(=O)O (stereo not drawn) [Compound 69]

>  <system>
recombinant human BACE-1 (Homo sapiens, UniProt P56817)

>  <cat>
YES

$$$$
>  <compound>
NCCCCCO[C@H]1O[C@H](COS(=O)(=O)[O-])[C@@H](O[C@@H]2O[C@@H](C(=O)[O-])[C@@H](O[C@H]3O[C@H](COS(=O)(=O)[O-])[C@@H](O[C@@H]4O[C@@H](C(=O)[O-])[C@@H](O)[C@H](O)[C@H]4O)[C@H](O)[C@H]3NS(=O)(=O)[O-])[C@H](O)[C@H]2O)[C@H](O)[C@H]1NS(=O)(=O)[O-].[Na+].[Na+].[Na+].[Na+].[Na+].[Na+] [Compound 83]

>  <system>
recombinant human BACE-1 (Homo sapiens, UniProt P56817)

>  <cat>
YES

$$$$
>  <compound>
NCCCCCO[C@H]1O[C@H](COS(=O)(=O)[O-])[C@@H](O[C@@H]2O[C@H](C(=O)[O-])[C@@H](O[C@H]3O[C@H](COS(=O)(=O)[O-])[C@@H](O[C@@H]4O[C@@H](C(=O)[O-])[C@@H](O)[C@H](O)[C@H]4O)[C@H](O)[C@H]3NS(=O)(=O)[O-])[C@H](O)[C@H]2O)[C@H](O)[C@H]1NS(=O)(=O)[O-].[Na+].[Na+].[Na+].[Na+].[Na+].[Na+] [Compound 81]

>  <system>
recombinant human BACE-1 (Homo sapiens, UniProt P56817)

>  <cat>
NO

$$$$
>  <compound>
CC(=O)N[C@H]1[C@@H](O[C@H]2[C@H](O)[C@@H](O)[C@H](O[C@H]3[C@H](O)[C@@H](NC(C)=O)[C@@H](OCCCCCN)O[C@@H]3COS(=O)(=O)[O-])O[C@H]2C(=O)[O-])O[C@H](COS(=O)(=O)[O-])[C@@H](O[C@@H]2O[C@@H](C(=O)[O-])[C@@H](O)[C@H](O)[C@H]2O)[C@@H]1O.[Na+].[Na+].[Na+].[Na+] [Compound 82]

>  <system>
recombinant human BACE-1 (Homo sapiens, UniProt P56817)

>  <cat>
YES

$$$$
>  <compound>
CC(=O)N[C@H]1[C@@H](O[C@H]2[C@H](O)[C@@H](O)[C@H](O[C@H]3[C@H](O)[C@@H](NC(C)=O)[C@@H](OCCCCCN)O[C@@H]3COS(=O)(=O)[O-])O[C@@H]2C(=O)[O-])O[C@H](COS(=O)(=O)[O-])[C@@H](O[C@@H]2O[C@H](C(=O)[O-])[C@@H](O)[C@H](O)[C@H]2O)[C@@H]1O.[Na+].[Na+].[Na+].[Na+] [Compound 76]

>  <system>
recombinant human BACE-1 (Homo sapiens, UniProt P56817)

>  <cat>
YES

$$$$

Is IC50, inhibition of cleavage of FRET peptide by BACE-1 of CC(=O)N[C@H]1[C@@H](O[C@H]2[C@H](O)[C@@H](O)[C@H](O[C@H]3[C@H](O)[C@@H](NC(C)=O)[C@@H](OCCCCCN)O[C@@H]3COS(=O)(=O)[O-])O[C@H]2C(=O)[O-])O[C@H](COS(=O)(=O)[O-])[C@@H](O[C@@H]2O[C@H](C(=O)[O-])[C@@H](O)[C@H](O)[C@H]2O)[C@@H]1O.[Na+].[Na+].[Na+].[Na+] [Compound 78] strictly below 100 µg/ml? NO

Lab note: confirm whether the reported IC50, inhibition of cleavage of FRET peptide by BACE-1 for this compound is below 100 µg/ml, equality not counting. compound: NCCCCCO[C@H]1O[C@H](COS(=O)(=O)[O-])[C@@H](O[C@@H]2O[C@@H](C(=O)[O-])[C@@H](O[C@H]3O[C@H](COS(=O)(=O)[O-])[C@@H](O[C@@H]4O[C@H](C(=O)[O-])[C@@H](O)[C@H](O)[C@H]4O)[C@H](O)[C@H]3NS(=O)(=O)[O-])[C@H](O)[C@H]2O)[C@H](O)[C@H]1NS(=O)(=O)[O-].[Na+].[Na+].[Na+].[Na+].[Na+].[Na+] [Compound 79] NO
